- system-name: c-Src (Homo sapiens, UniProt P12931)
- Construct: purchased Enzo Life Sciences Inc, NY, USA; Signal Chem, Richmond, Canada
- Sequence (P12931 whole entry): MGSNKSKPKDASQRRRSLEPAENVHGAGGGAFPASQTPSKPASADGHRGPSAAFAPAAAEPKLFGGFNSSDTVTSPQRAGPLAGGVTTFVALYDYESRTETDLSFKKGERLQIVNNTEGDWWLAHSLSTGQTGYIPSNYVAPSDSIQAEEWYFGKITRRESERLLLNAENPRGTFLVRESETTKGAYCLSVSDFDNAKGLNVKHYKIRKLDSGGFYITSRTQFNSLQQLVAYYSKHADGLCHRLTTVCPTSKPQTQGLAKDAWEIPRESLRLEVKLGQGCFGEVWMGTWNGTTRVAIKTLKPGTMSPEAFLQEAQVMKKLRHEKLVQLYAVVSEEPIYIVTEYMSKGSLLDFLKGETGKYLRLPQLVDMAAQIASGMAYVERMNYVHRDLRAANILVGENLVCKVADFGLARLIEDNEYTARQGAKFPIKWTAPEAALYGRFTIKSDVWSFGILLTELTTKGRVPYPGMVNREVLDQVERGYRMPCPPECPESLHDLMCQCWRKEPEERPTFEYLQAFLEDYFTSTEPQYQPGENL
- test-summary: In vitro kinase assay, c-Src
- Type: biochemical
- experimental-setup: ATP 50 μM, average of three independent experiments in duplicate, read-out: IC50 c-Src kinase inhibition
IC50 overview
quantity-measured: IC50 (nM)

1. Cc1nc(Nc2ncc(C(=O)Nc3c(C)cccc3Cl)s2)cc(N2CCN(CCOC(=O)CCC(=O)Nc3ccc4ncnc(Nc5cccc(Cl)c5)c4c3)CC2)n1 : 8
2. Cc1nc(Nc2ncc(C(=O)Nc3c(C)cccc3Cl)s2)cc(N2CCN(CCOC(=O)OCCN3CCN(CCNc4ccc5ncnc(Nc6cccc(Br)c6)c5c4)CC3)CC2)n1 : 40

###

- Test system: 4T1 cells
- test-summary: Growth inhibition, SRB assay, 4T1
- experimental-setup: Mus musculus, 4T1, 120 h, read-out: IC50 growth inhibition 4T1
quantity-measured: IC50 (nM)

1) Cc1nc(Nc2ncc(C(=O)Nc3c(C)cccc3Cl)s2)cc(N2CCN(CCOC(=O)CCC(=O)OCCN(C)Cc3ccc(C(=O)Nc4ccc5ncnc(Nc6cccc(Cl)c6)c5c4)cc3)CC2)n1 : 70
2) Cc1nc(Nc2ncc(C(=O)Nc3c(C)cccc3Cl)s2)cc(N2CCN(CCO)CC2)n1 [Dasatinib, dasatinib, reference compound] : 50

###

- system-name: c-Src (Homo sapiens, UniProt P12931)
- Construct: purchased Enzo Life Sciences Inc, NY, USA; Signal Chem, Richmond, Canada
- test-summary: In vitro kinase assay, c-Src
- Format: biochemical
- experimental-setup: ATP 50 μM, read-out: IC50 c-Src kinase inhibition
quantity-measured: IC50 (nM)

1. Cc1nc(Nc2ncc(C(=O)Nc3c(C)cccc3Cl)s2)cc(N2CCN(CCOC(=O)CCC(=O)OCCN(C)Cc3ccc(C(=O)Nc4ccc5ncnc(Nc6cccc(Cl)c6)c5c4)cc3)CC2)n1 : 3
